Recorded measurements of pEC50, one per entry
tested on: methicillin resistant S. aureus Mu50 strain (S. aureus ATCC700699) biofilm; assay: Biofilm susceptibility to vancomycin, pre-treatment regimen (biofilm formed in presence of compound, then vancomycin); assay type: cell-based; conditions: concentration needed to get 50% killing compared to antibiotic alone (VAN 20 μg/ml) and complete killing; read-out: Pretreat. (EC50)
Answer as the number alone; pEC50 is minus log10 of concentration in mol/L.

Below are worked cases with known answers.
>>> value_reported("O=C(NC[C@@H]1OC[C@@](O)(CNC(=O)c2ccccc2)[C@@H]1O)c1ccccc1")
3.65
>>> value_reported("O=C(NC[C@]1(O)CO[C@H](CNC(=O)c2c(Cl)cncc2Cl)[C@H]1O)c1ccccc1")
5.14
>>> value_reported("O=C(NC[C@]1(O)CO[C@H](CNC(=O)c2c(Cl)cccc2Cl)[C@H]1O)c1ccccc1")
4.23
>>> value_reported("O=C(NC[C@]1(O)CO[C@H](CNC(=O)c2ccc(Cl)nc2Cl)[C@H]1O)c1ccccc1")
5.10
>>> value_reported("O=C(NC[C@]1(O)CO[C@H](CNC(=O)c2ccccc2Cl)[C@H]1O)c1ccnnc1")
4.83
>>> value_reported("CN(C[C@]1(O)CO[C@H](CNC(=O)c2ccccc2)[C@H]1O)C(=O)c1ccccc1")
5.24
>>> value_reported("Cn1cncc1C(=O)NC[C@H]1OC[C@@](O)(CNC(=O)c2ccccc2)[C@@H]1O")
4.28
>>> value_reported("O=C(NC[C@]1(O)CO[C@H](CN2Cc3ccccc3C2=O)[C@H]1O)c1ccccc1")
4.24
>>> value_reported("O=C(NC[C@H]1OC[C@@](O)(CNC(=O)c2ccnnc2)[C@@H]1O)c1ccnnc1")
5.15
>>> value_reported("O=C(NC[C@]1(O)CO[C@H](CNC(=O)c2ccccc2Cl)[C@H]1O)c1ccoc1")
4.16

## Input Recorded pEC50 of Cn1nccc1C(=O)NC[C@H]1OC[C@@](O)(CNC(=O)c2ccccc2)[C@@H]1O , please.
## Output 4.53

## Input Look at this compound and give its reported pEC50. CN(C)c1ccc(C(=O)NC[C@]2(O)CO[C@H](CNC(=O)c3ccccc3Cl)[C@H]2O)cc1
## Output 4.32

## Input Quick one: pEC50 for O=C(NC[C@H]1OC(O)[C@@](O)(CNC(=O)c2cc(O)c(O)c(O)c2)[C@@H]1O)c1cc(O)c(O)c(O)c1 (stereo partly shown) ?
## Output 4.20

## Input Which value of pEC50 has been reported for O=C(NC[C@]1(O)CO[C@H](CNC(=O)c2ccccc2Cl)[C@H]1O)c1ccc(C(F)(F)F)cc1 in the records?
## Output 4.07

## Input Any idea what its pEC50 is? The compound is O=C(NC[C@]1(O)CO[C@H](CNC(=O)c2ccccc2Br)[C@H]1O)c1ccccc1
## Output 5.01

---

The following compounds are listed with their measured Combin. (100 μM): percentage Colony Forming Units (CFU's) per biofilm values.
test system: methicillin resistant S. aureus Mu50 strain (S. aureus ATCC700699) biofilm; assay: Biofilm susceptibility to vancomycin, combination treatment regimen (mature biofilm treated with compound plus vancomycin); format: cell-based; conditions: compound 100 μM together with VAN 20 μg/ml on mature biofilm; compared to the untreated (negative) control
Answer with the value and then the unit.

Recorded Combin. (100 μM): percentage Colony Forming Units (CFU's) per biofilm, per entry:
>>> value_reported("O=C(NC[C@]1(O)CO[C@H](CNC(=O)c2ncccn2)[C@H]1O)c1ccccc1")
"31.95 percentage"
>>> value_reported("CN(C[C@]1(O)CO[C@H](CNC(=O)c2ccccc2)[C@H]1O)C(=O)c1ccccc1")
"11.15 percentage"
>>> value_reported("O=C(NC[C@]1(O)CO[C@H](CNC(=O)c2c(Cl)ccnc2Cl)[C@H]1O)c1ccccc1")
"8.072 percentage"
>>> value_reported("Cc1ccc(S(=O)(=O)NC[C@H]2OC[C@@](O)(CNC(=O)c3ccccc3)[C@@H]2O)cc1")
"25.95 percentage"
>>> value_reported("O=C(NC[C@]1(O)CO[C@H](CNC(=O)c2cccc3ccccc23)[C@H]1O)c1ccccc1")
"40.23 percentage"

Now for a further compound.
## Input Sample O=C(CCc1ccccc1)NC[C@H]1OC[C@@](O)(CNC(=O)c2ccccc2)[C@@H]1O — what was its Combin. (100 μM): percentage Colony Forming Units (CFU's) per biofilm?
## Output 29.24 percentage

Provenance of the data: patent US10023602B2
